- system name: TLR9 (Homo sapiens)
- Construct: lymphocytes, monocytes and dendritic cells that express TLR7, TLR8 and TLR9; endogenous in cells; host or cells: human PBMCs from healthy donors
- assay summary: Human PBMC cell-based assay, TLR9 agonist ODN-2216 stimulation, cytokine (IL-6 and IFNα) readout
- condition notes: human PBMCs, ODN-2216 3 μM, 6 hours; Table 26; read-out: TLR-9 EC50
measurement kind: EC50

Illustrative cases are given below, each with its answer.
Cc1cc(-c2[nH]c3cc(-c4ccc(N5CCNCC5)nc4C)ccc3c2C)cc(C)n1 [Example 4] :: 153 nM
Cc1cc(-c2[nH]c3cc(C4CCNCC4)ccc3c2C)cc(C)n1 [Example 48] :: 136 nM
Cc1ncc(-c2[nH]c3cc(-c4ccc(N5CCNCC5)nc4)ccc3c2C)cn1 [Example 82] :: 489 nM

// below: EC50 requested for another compound
[ask] Which EC50 value is on record for Cc1cc(-c2[nH]c3cc(-c4ccc(N5CCNCC5)nc4)ccc3c2C)c2cccnc2n1 [Example 99] ?
[reply] 548 nM

###

- system name: TLR9 (Homo sapiens)
- Construct: lymphocytes, monocytes and dendritic cells that express TLR7, TLR8 and TLR9; endogenous in cells; host or cells: human PBMCs from healthy donors
- assay summary: Human PBMC cell-based assay, TLR9 agonist ODN-2216 stimulation, cytokine (IL-6 and IFNα) readout
- condition notes: human PBMCs, ODN-2216 3 μM, 6 hours; Table 26; read-out: TLR-9 EC50
- From the text: Human peripheral blood mononuclear cells (PBMCs) consist of lymphocytes, monocytes and dendritic cells that express TLR7, TLR8 and TLR9. These cells respond to TLR7, TLR8 and TLR9 ligand stimulation and produce cytokines and chemokines in vitro and in vivo. Human PBMCs are therefore suitable to be used in a cell-based assay to assess the in vitro potency of a TLR 7, 8, and/or 9 antagonist. […]
Classes based on EC50: lower = under 100 nM, middle = from 100 nM up to 600 nM, upper = 600 nM and over

Cc1cc(-c2[nH]c3cc(-c4ccc(N5CCN(CCO)CC5)nc4)ccc3c2C2CC2)cc(C)n1 :: middle
Cc1cc(-c2[nH]c3cc(-c4nc(C5CCNCC5)cs4)ccc3c2C)cc(C)n1 :: middle
Cc1cc(-c2[nH]c3cc(-c4ccc5c(c4)CCNC5)ccc3c2C)cc(C)n1 :: lower

[ask] Input `Cc1cc(-c2[nH]c3cc(-c4cnc5[nH]c(C)nc5c4)ccc3c2C)cc(C)n1` ; output its category
[reply] upper

[ask] Input `Cc1cc(-c2[nH]c3cc(-c4cnn(CCN)c4)ccc3c2C)cc(C)n1` ; output its category
[reply] middle

[ask] Input Cc1cc(-c2[nH]c3cc(-c4ccc(C(=O)N5CCN6CCC5C6)cc4)ccc3c2C)cc(C)n1 (centres unmarked) ; output its category
[reply] lower

[ask] Input `Cc1cc(-c2[nH]c3cc(-c4ccc(N5CCN(CCO)CC5)nc4)ccc3c2C)cc(C)n1` ; output its category
[reply] lower

[ask] Input `Cc1cncc(-c2[nH]c3cc(-c4ccc(N5CCNCC5)nc4)ccc3c2C)c1` ; output its category
[reply] upper

###

- system name: TLR9 (Homo sapiens, UniProt Q9NR96)
- Construct: lymphocytes, monocytes and dendritic cells that express TLR7, TLR8 and TLR9; endogenous in cells; host or cells: human PBMCs from healthy donors
- Sequence (Q9NR96 26-1032): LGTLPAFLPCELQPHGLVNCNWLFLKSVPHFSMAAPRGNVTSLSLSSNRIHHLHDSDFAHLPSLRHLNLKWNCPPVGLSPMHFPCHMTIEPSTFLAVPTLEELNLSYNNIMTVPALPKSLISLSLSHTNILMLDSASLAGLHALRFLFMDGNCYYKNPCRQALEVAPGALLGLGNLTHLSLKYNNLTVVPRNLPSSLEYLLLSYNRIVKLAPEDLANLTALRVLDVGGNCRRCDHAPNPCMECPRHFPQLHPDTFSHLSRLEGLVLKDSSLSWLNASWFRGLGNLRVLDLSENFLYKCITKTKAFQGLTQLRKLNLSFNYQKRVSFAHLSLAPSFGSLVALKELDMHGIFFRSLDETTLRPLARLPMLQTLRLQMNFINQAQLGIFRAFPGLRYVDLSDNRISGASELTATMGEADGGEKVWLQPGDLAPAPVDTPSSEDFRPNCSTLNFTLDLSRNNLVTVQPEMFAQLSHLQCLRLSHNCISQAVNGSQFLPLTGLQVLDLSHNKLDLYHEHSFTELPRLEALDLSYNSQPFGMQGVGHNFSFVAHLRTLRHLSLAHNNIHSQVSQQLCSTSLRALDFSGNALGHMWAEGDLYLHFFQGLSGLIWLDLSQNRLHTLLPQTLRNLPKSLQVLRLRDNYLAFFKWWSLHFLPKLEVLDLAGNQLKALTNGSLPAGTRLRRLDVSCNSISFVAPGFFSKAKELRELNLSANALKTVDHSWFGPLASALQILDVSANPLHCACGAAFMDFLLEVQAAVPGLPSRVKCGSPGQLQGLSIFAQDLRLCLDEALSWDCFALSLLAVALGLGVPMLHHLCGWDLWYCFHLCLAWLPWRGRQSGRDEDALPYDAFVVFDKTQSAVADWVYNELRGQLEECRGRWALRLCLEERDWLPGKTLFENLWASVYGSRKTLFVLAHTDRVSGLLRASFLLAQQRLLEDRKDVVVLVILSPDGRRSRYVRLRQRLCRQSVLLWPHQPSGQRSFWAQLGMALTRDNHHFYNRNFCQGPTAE
- assay summary: Human PBMC cell-based assay, TLR9 agonist ODN-2216 stimulation, cytokine (IL-6 and IFNα) readout
- condition notes: human PBMCs, ODN-2216 3 μM, 6 hours; Table 26; read-out: TLR-9 EC50
Threshold check on EC50: strictly below 200 nM is MET; on or above 200 nM is NOT MET.

# count of solved cases: 7
Cc1cncc(-c2[nH]c3cc(-c4ccc(N5CCNCC5)nc4)ccc3c2C)n1 [Example 98] :: NOT MET
Cc1cc(-c2[nH]c3cc(-c4cccc(C(=O)N5CC6CNCC6C5)c4)ccc3c2C)cc(C)n1 (centres unmarked) [Example 123] :: NOT MET
Cc1c(-c2cc(C)c3ncnn3c2)[nH]c2cc(C3CCNCC3)ccc12 [Example 51] :: NOT MET
Cc1cc(-c2[nH]c3cc(-c4cccc(C(=O)N5CCNCC5)c4)ccc3c2C)cc(C)n1 [Example 12] :: MET
Cc1cc(-c2[nH]c3cc(-c4ccc(N5CCN(CC(F)F)CC5)nc4)ccc3c2C)cc(C)n1 [Example 141] :: MET
Cc1cc(-c2[nH]c3cc(-c4ccc(N5C[C@H]6CC[C@@H](C5)[C@@H]6N)nc4)ccc3c2C)cc(C)n1 [Example 28] :: MET
Cc1cc(-c2[nH]c3cc(-c4ccc(N5CCNCC5)nc4)cnc3c2C)cc(C)n1 [Example 149] :: MET

Next up:
[ask] Is 200 nM strictly greater than the molecule's reported EC50? molecule: Cc1cc(-c2[nH]c3cc(-c4cccc(C(=O)N5CCC(N)CC5)c4)ccc3c2C)cc(C)n1 [Example 122]
[reply] MET
